All figures here come from PubChem BioAssay (NCATS).

# ASSAY: Confirmatory screen NINDS Rhodamine qHTS for Zika virus inhibitors (AID 1347161); also: potency is read from the fitted curve at half-maximal effect; nearly all actives have a fitted effect of over 60% in size
# DETAILS: purified enzyme assay, Rhodamine110 substrate fluorescence, 15 min; series mostly up to 114 µM
Results filed as inconclusive are left out. Activity calls are given as the source filed them. Calls follow the shape of the dose curve; as a rule, active = well fitted inhibition curve with a large enough effect; inconclusive = small, poorly fitted or top-dose-only effect; inactive = no such curve, though single readings can be large or run the other way.
RECORDED METRIC: Potency

See these solved cases before continuing.
>>> test_result("COC(=O)c1ccc([C@H]2Nc3ccc(S(=O)(=O)Nc4ccc(C)cc4)cc3[C@H]3C=CC[C@H]32)cc1")
"17.8 µM (active)"
>>> test_result("Cc1oc2c(cc(NS(=O)(=O)c3ccc(Cl)cc3)c3ccccc32)c1C(=O)OCc1ccccc1")
"39.8 µM (active)"
>>> test_result("COc1ccc(-c2cc(=O)c3c(O)cc(O)c(-c4cc(-c5cc(=O)c6c(O)cc(O)cc6o5)ccc4OC)c3o2)cc1")
"25.1 µM (active)"

We now examine a further compound.
// query Report Potency for CC(C)=CCCC1(C)C=Cc2c(O)c3c(c(CC=C(C)C)c2O1)OC12C(=CCCC1C(C)(C)O[C@@]2(C/C=C(\C)C(=O)O)C(=O)O)C3=O (some centres undefined) please.
// result 1.39 µM (active)
